Source: ChEMBL document CHEMBL1152529

Tested on: Candida albicans
Experiment: Antifungal activity against Candida albicans ATCC 10231 after 48 to 72 hrs by broth microdilution method
Type: functional
Conditions: Candida albicans, ATCC 10231; read-out: MIC
Hi there, I'd appreciate the recorded MIC for every entry that follows.
Form entry: value (µM) — number only.

// lookup MIC for `OCCCc1cc[n+](CCCCCCCCCCCC[n+]2ccc(CCCO)cc2)cc1` 88

Same for `CCCCC(CCCC)c1cc[n+](CCCCCCCCCCCC[n+]2ccc(C(CCCC)CCCC)cc2)cc1` 1.4

Same for `CCCCCc1cc[n+](CCCCCCCCCCCC[n+]2ccc(CCCCC)cc2)cc1` 2.7

Same for `CC(C)(C)CCc1cc[n+](CCCCCCCCCCCC[n+]2ccc(CCC(C)(C)C)cc2)cc1` 5.5

Same for `C=CCCCc1cc[n+](CCCCCCCCCCCC[n+]2ccc(CCCC=C)cc2)cc1` 2.7

Same for `CC(C)CCc1cc[n+](CCCCCCCCCCCC[n+]2ccc(CCC(C)C)cc2)cc1` 5.5

Same for `CC(C)c1cc[n+](CCCCCCCCCCCC[n+]2ccc(C(C)C)cc2)cc1` 22

Same for `CCCc1cc[n+](CCCCCCCCCCCC[n+]2ccc(CCC)cc2)cc1` 11

Same for `CC(C)(C)c1cc[n+](CCCCCCCCCCCC[n+]2ccc(C(C)(C)C)cc2)cc1` 22

Same for `CC(C)CCCc1cc[n+](CCCCCCCCCCCC[n+]2ccc(CCCC(C)C)cc2)cc1` 2.7

Same for `CCCCCc1cccc[n+]1CCCCCCCCCCCC[n+]1ccccc1CCCCC` 2.7

Same for `CCCCCc1cc[n+](CCCCCCCCCCCC[n+]2ccc(CCCCC)c(C)c2)cc1C` 2.7

Same for `Cc1cc[n+](CCCCCCCCCCCC[n+]2ccc(C)cc2)cc1` 22

Same for `OCc1cc[n+](CCCCCCCCCCCC[n+]2ccc(CO)cc2)cc1` 88

Same for `CCCCCCc1cc[n+](CCCCCCCCCCCC[n+]2ccc(CCCCCC)cc2)cc1` 1.4

Same for `CCCCc1cc[n+](CCCCCCCCCCCC[n+]2ccc(CCCC)cc2)cc1` 5.5

Same for `c1ccc(Cc2cc[n+](CCCCCCCCCCCC[n+]3ccc(Cc4ccccc4)cc3)cc2)cc1` 11

Same for `CCc1cc[n+](CCCCCCCCCCCC[n+]2ccc(CC)cc2)cc1` 11

Same for `c1ccc(CCCc2cc[n+](CCCCCCCCCCCC[n+]3ccc(CCCc4ccccc4)cc3)cc2)cc1` 2.7
